# Test system: HUVEC
# test-method-notes: Antiproliferative activity against HUVEC after 72 hrs by MTT assay
# Format: cell-based
# experimental-parameters: Homo sapiens
Criterion: IC50 strictly under 700 pM. Met: Criterion met. Not met: Criterion not met.

compound	discrete-label
CO[C@H]1C([C@@]2(C)O[C@@H]2CC=C(C)C)[C@]2(CC[C@H]1OC(=O)NC(C)C)CO2 (single isomer, unassigned)	Criterion met
COC(=O)[C@H](NC(=O)O[C@@H]1CC[C@]2(CO2)C([C@@]2(C)O[C@@H]2CC=C(C)C)[C@@H]1OC)c1ccccc1 (single isomer, unassigned)	Criterion met
CO[C@H]1C([C@@]2(C)O[C@@H]2CC=C(C)C)[C@]2(CC[C@H]1OC(=O)NC(C)(C)C)CO2 (single isomer, unassigned)	Criterion not met
CO[C@H]1[C@@H]([C@@]2(C)O[C@@H]2CC=C(C)C)[C@]2(CC[C@H]1OC(=O)N[C@@H](C(=O)NCCC1CCCN1C)C(C)C)CO2 (stereo partly drawn)	Criterion met
COC(=O)[C@@H](NC(=O)O[C@@H]1CC[C@]2(CO2)[C@H]([C@@]2(C)O[C@@H]2CC=C(C)C)[C@@H]1OC)C(C)C	Criterion met
CO[C@H]1[C@@H]([C@@]2(C)O[C@@H]2CC=C(C)C)[C@]2(CC[C@H]1OC(=O)N[C@@H](C(=O)NCCN1CCCC1)C(C)C)CO2	Criterion met
COC(=O)[C@H](NC(=O)O[C@@H]1CC[C@]2(CO2)C([C@@]2(C)O[C@@H]2CC=C(C)C)[C@@H]1OC)C(C)C (single isomer, unassigned)	Criterion met
CO[C@H]1[C@@H]([C@@]2(C)O[C@@H]2CC=C(C)C)[C@]2(CC[C@H]1OC(=O)N[C@@H](C(=O)NN1CCOCC1)C(C)C)CO2	Criterion not met
CO[C@H]1[C@@H]([C@@]2(C)O[C@@H]2CC=C(C)C)[C@]2(CC[C@H]1OC(=O)N[C@@H](C(N)=O)C(C)C)CO2	Criterion met
CO[C@H]1C([C@@]2(C)O[C@@H]2CC=C(C)C)[C@]2(CC[C@H]1OC(=O)NCCC[N+](C)(C)C)CO2 (single isomer, unassigned)	Criterion not met

[in] I'd appreciate it if you could check whether CO[C@H]1C([C@@]2(C)O[C@@H]2CC=C(C)C)[C@]2(CC[C@H]1OC(=O)NC(C)(C)C(N)=O)CO2 (single isomer, unassigned) has IC50 smaller than 700 pM.
[out] Criterion not met

[in] I'd appreciate it if you could check whether CO[C@H]1[C@@H]([C@@]2(C)O[C@@H]2CC=C(C)C)[C@]2(CC[C@H]1OC(=O)NC(=O)CCl)CO2 has IC50 smaller than 700 pM.
[out] Criterion met

[in] I'd appreciate it if you could check whether CO[C@H]1C([C@@]2(C)O[C@@H]2CC=C(C)C)[C@]2(CC[C@H]1OC(=O)N1CCC(C(=O)O)CC1)CO2 (single isomer, unassigned) has IC50 smaller than 700 pM.
[out] Criterion not met

[in] I'd appreciate it if you could check whether CO[C@H]1C([C@@]2(C)O[C@@H]2CC=C(C)C)[C@]2(CC[C@H]1OC(=O)N[C@@H](C(=O)Nc1cccc(C(=O)O)c1)C(C)C)CO2 (single isomer, unassigned) has IC50 smaller than 700 pM.
[out] Criterion not met

[in] I'd appreciate it if you could check whether CO[C@H]1C([C@@]2(C)O[C@@H]2CC=C(C)C)[C@]2(CC[C@H]1OC(=O)NCCC1CCC[N+]1(C)C)CO2 (single isomer, unassigned) has IC50 smaller than 700 pM.
[out] Criterion not met
